target_entity: T1, biotinylated Aβ1-40 peptide (biotinylated (N-biotinylated in Example 7))
T1 construct: captured on streptavidin (SA) chip; also called Biotinylated Aβ peptide 1-40; Aβ1-40 on SA chip
test_details: SPR, Fab over Aβ1-40 on SA chip
Measured koff, listed per entry.
Could you give me the number in s⁻¹? Just the number is fine.

# count of solved cases: 2
1) 9TL variant 22-T/I Fab (Fab, V domains shown, Fab; human IgG2 CH1 and kappa CL) VH: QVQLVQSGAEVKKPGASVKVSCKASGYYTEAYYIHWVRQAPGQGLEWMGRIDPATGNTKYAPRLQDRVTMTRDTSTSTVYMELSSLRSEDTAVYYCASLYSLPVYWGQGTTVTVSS VL: DVVMTQSPLSLPVTLGQPASISCKSSQSLLYSDAKTYLNWFQQRPGQSPRRLIYQISRLDPGVPDRFSGSGSGTDFTLKISRVEAEDVGVYYCLQGTHYPVIFGQGTRLEIKR :: 0.00046
2) 9TL variant M10 Fab (Fab, V domains shown, Fab; human IgG2 CH1 and kappa CL; same printed substitution as M7) VH: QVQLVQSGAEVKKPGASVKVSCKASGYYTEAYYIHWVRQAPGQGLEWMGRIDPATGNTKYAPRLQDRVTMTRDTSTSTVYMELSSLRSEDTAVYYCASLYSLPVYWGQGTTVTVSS VL: DVVMTQSPLSLPVTLGQPASISCKSSQSLLYSDAKTYLNWFQQRPGQSPRRLIYQISRLDPGVPDRFSGSGSGTDFTLKISRVEAEDVGVYYCSQGTHYPVLFGQGTRLEIKR :: 0.0083

Memo: 9TL variant M9 Fab (Fab, V domains shown, Fab; human IgG2 CH1 and kappa CL) VH: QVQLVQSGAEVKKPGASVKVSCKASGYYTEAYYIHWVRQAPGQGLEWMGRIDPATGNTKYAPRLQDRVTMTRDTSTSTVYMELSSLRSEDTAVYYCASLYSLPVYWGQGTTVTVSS VL: DVVMTQSPLSLPVTLGQPASISCKSSQSLLYSDAKTYLNWFQQRPGQSPRRLIYQISRLDPGVPDRFSGSGSGTDFTLKISRVEAEDVGVYYCGQGTHYPVLFGQGTRLEIKR , reported koff: 0.0078
